These data points were gathered from PubChem BioAssay AID1986.

Below is a list of entries, each paired with its recorded inhibition value.
experimental protocol: inhibitors of HIV fusion peptide binding, primary screen, biochemical, uHTS, fluorescence dequenching (AID 1986)
conditions used: cell-free peptide binding, 30 min, at 20 µM, stronger effect = higher value
Screen size: about 290,000 compounds; about 890 (0.31%) were called active. This is one part of a sample in which actives are shown more often than they occur.
property label: inhibition (%)

[[record]]
molecule = "COc1ccc(CN2CCN(c3ccccc3)CC2)c(C)c1C"
property_label = "inhibition"
measurement_units = "%"
observed_value = -1.3

[[record]]
molecule = "O=C(C1c2ccccc2C(=O)N2CCc3ccccc3C12)N1CCC2(CC1)OCCO2 (stereo not given)"
property_label = "inhibition"
measurement_units = "%"
observed_value = -2.3

[[record]]
molecule = "O=C(C1CCCN(S(=O)(=O)c2cccc3nsnc23)C1)N1CCC2(CC1)OCCO2 (stereo not given)"
property_label = "inhibition"
measurement_units = "%"
observed_value = -1.1

[[record]]
molecule = "O=C(C(Cc1ccccc1)NS(=O)(=O)c1cccc2nsnc12)N1CCC2(CC1)OCCO2 (stereo not given)"
property_label = "inhibition"
measurement_units = "%"
observed_value = 103

[[record]]
molecule = "COc1cc(CC2(CCc3ccncc3)C(=O)N(C)C(=O)N(C)C2=O)cc(OC)c1OC"
property_label = "inhibition"
measurement_units = "%"
observed_value = 2.3


====

experimental protocol: inhibitors of HIV fusion peptide binding, primary screen, biochemical, uHTS, fluorescence dequenching (AID 1986)
conditions used: cell-free peptide binding, 30 min, at 20 µM
The whole screen tested about 290,000 compounds, of which about 890 (0.31%) were called active. No stated cut-off is given here; in the data, active means inhibition mostly above about 52% (no sharp cut-off); inactive means mostly below about 76%. The list comes from a sample in which actives are over-represented; it also holds close analogues and randomly drawn compounds.
Possible outcomes: active, inactive

[[record]]
compound = "CCN(CC)c1ccc(C=C2C(=O)N(C)C(=S)N(C)C2=O)o1"
category_label = "active"

[[record]]
compound = "O=C1NC(=O)[C@]2(Cc3ccccc3N3CCN(c4ccccc4)CC32)C(=O)N1Cc1ccccc1 (some centres undefined)"
category_label = "inactive"

[[record]]
compound = "Cn1cc(C=C(C#N)C#N)c2ccccc21"
category_label = "active"

[[record]]
compound = "Cc1cc(C)cc(N2C(=O)/C(=C\\c3ccc(N4CCN(C)CC4)o3)C(=O)NC2=S)c1"
category_label = "inactive"

[[record]]
compound = "COc1cc(OC)c(C=O)c(OC(=O)N(C)C)c1"
category_label = "inactive"

[[record]]
compound = "CN1CCN(c2ccccc2N)CC1"
category_label = "inactive"

[[record]]
compound = "O=C(CNC(=O)c1ccc(Br)cc1)Nc1ccc(Br)cc1C(=O)c1ccccc1"
category_label = "inactive"

[[record]]
compound = "NCCc1c[nH]c2ccc(OCc3ccccc3)cc12"
category_label = "inactive"

[[record]]
compound = "Cc1cc(N2CCCCC2)ccc1C=C1C(=O)N(C)C(=S)N(C)C1=O"
category_label = "inactive"

[[record]]
compound = "CN1CCC(N2CC3CC(C2)c2cccc(=O)n2C3)CC1 (centres undefined)"
category_label = "inactive"

[[record]]
compound = "O=C(c1ccc(Cl)cc1)C12CN3CN(CN(C3)C1)C2"
category_label = "inactive"

[[record]]
compound = "CC1Oc2cc3c(-c4c(O)cc(O)c5c(O)c6c(cc45)OC(C)C(C)C6=O)c(O)cc(O)c3c(O)c2C(=O)C1C (centres undefined)"
category_label = "active"

[[record]]
compound = "CN1C(=O)C(=Cc2ccc(N3CCOCC3)o2)C(=O)N(C)C1=S"
category_label = "inactive"

[[record]]
compound = "CCCCn1c(=O)c(C=Nc2cccnc2Cl)c(O)n(CCCCl)c1=O"
category_label = "inactive"

[[record]]
compound = "Cc1cc(C=C(C#N)C#N)ccc1N1CCCC1"
category_label = "inactive"

[[record]]
compound = "C=CCn1c(=O)c(C=Nc2cccnc2Cl)c(O)n(CCCC)c1=O"
category_label = "inactive"

[[record]]
compound = "CCC(=O)c1cn(Cc2ccccc2)c2ccccc12"
category_label = "inactive"

[[record]]
compound = "N#CC(C#N)=Cc1ccc(N2CCCC2)cc1"
category_label = "inactive"

[[record]]
compound = "Cc1cccc(N2C(=O)NC(=O)/C(=C\\c3cc(C)n(-c4sc5c(c4C#N)CCCC5)c3C)C2=O)c1C"
category_label = "inactive"

[[record]]
compound = "CC(C)Cc1nnc(NC(=O)CCC(=O)N2CCC3(CC2)OCCO3)s1"
category_label = "inactive"

[[record]]
compound = "CCCCn1c(O)c(C(=O)/C=C/c2c[nH]c3ccccc23)c(=O)[nH]c1=O"
category_label = "active"

[[record]]
compound = "CC(C)n1c(=O)c(C=Nc2ccc(Cl)cc2)c(O)n(Cc2ccco2)c1=O"
category_label = "inactive"

[[record]]
compound = "CN1CCN(Cc2cn3cccnc3n2)CC1"
category_label = "inactive"

[[record]]
compound = "CCOC(=O)C1C(=O)N(C)C2(C)CC1c1ccccc1O2 (centres undefined)"
category_label = "inactive"

[[record]]
compound = "O=c1c(C=Nc2cccnc2Cl)c(O)n(CCCCl)c(=O)n1C1CCCCC1"
category_label = "active"

[[record]]
compound = "CN1C(=O)C(=Cc2ccc(Sc3ccccc3)o2)C(=O)N(C)C1=O"
category_label = "inactive"

[[record]]
compound = "COc1ccc(CCNCc2cccn2C)cc1"
category_label = "inactive"

[[record]]
compound = "Cn1cc(C(=O)c2ccccc2)c2ccccc21"
category_label = "inactive"

[[record]]
compound = "CN1C(=O)/C(=C\\c2ccc(N3CCCCCC3)cc2)C(=O)NC1=S"
category_label = "inactive"


====

experimental protocol: inhibitors of HIV fusion peptide binding, primary screen, biochemical, uHTS, fluorescence dequenching (AID 1986)
conditions used: cell-free peptide binding, 30 min, at 20 µM
Screen size: about 290,000 compounds; about 890 (0.31%) were called active. Cut-off read from the data, not from the text of the source: active = inhibition mostly above about 52% (no sharp cut-off); inactive = mostly below about 76%. Many of the other results were omitted from the sample, so actives are more common in it than they were.
Possible outcomes: true (active), false (inactive)

[[record]]
molecule = "COC(=O)Cn1cc(C=C2C(=O)N(C)C(=O)N(C)C2=O)c2ccccc21"
category_label = "true"

[[record]]
molecule = "COc1ccc(CN2CCN(Cc3ccccc3)CC2)c(OC)c1"
category_label = "false"

[[record]]
molecule = "CN1C(=O)C(=Cc2ccc(N3CCCCCC3)cc2)C(=O)N(C)C1=O"
category_label = "false"

[[record]]
molecule = "Cc1cc(C)cc(-n2c(O)c(C=Nc3ccc(N4CCOCC4)cc3)c(=O)[nH]c2=S)c1"
category_label = "false"

[[record]]
molecule = "COc1cccc(CN2CC=C(c3ccc(F)cc3)CC2)c1"
category_label = "false"

[[record]]
molecule = "COC(=O)Cn1cc(C=C2C(=O)NC(=O)NC2=O)c2ccccc21"
category_label = "false"

[[record]]
molecule = "O=C1NC(=O)N(Cc2ccco2)C(=O)/C1=C\\c1cccn1CCOc1ccc(Cl)cc1"
category_label = "false"

[[record]]
molecule = "CCn1cc(C=C2C(=O)N(C)C(=O)N(C)C2=O)c2ccccc21"
category_label = "false"

[[record]]
molecule = "CCN(CC)c1ccc(/C=N/c2sc3c(c2C#N)C2CCN3CC2)c(O)c1"
category_label = "true"

[[record]]
molecule = "CCC(C)c1ccc(N2C(=O)NC(=O)/C(=C/c3cccn3CCOc3ccc(C)cc3)C2=O)cc1 (configuration not stated)"
category_label = "true"

[[record]]
molecule = "COP(=O)(OC)C(Nc1ccccn1)c1ccccc1 (configuration not stated)"
category_label = "false"

[[record]]
molecule = "Cc1ccc(OCCn2cccc2/C=C2/C(=O)NC(=O)N(Cc3ccco3)C2=O)cc1"
category_label = "false"

[[record]]
molecule = "O=c1[nH]c(O)c(N=Nc2ccc(SC(F)F)cc2)c(=O)[nH]1"
category_label = "false"

[[record]]
molecule = "CCOC(=O)Cn1cc(C=C2C(=O)N(C)C(=O)N(C)C2=O)c2ccccc21"
category_label = "true"

[[record]]
molecule = "N#Cc1c(/N=C/c2ccc(O)cc2O)sc2c1C1CCN2CC1"
category_label = "false"

[[record]]
molecule = "CC(=O)c1ccc2c(c1)C1C(Cl)C(Sc3ccccc3[N+](=O)[O-])CC1C(C(=O)O)N2 (configuration not stated)"
category_label = "false"

[[record]]
molecule = "O=C(O)c1cccc2c1NC(C(=O)O)C1CC(Sc3ccccc3[N+](=O)[O-])C(Cl)C21 (configuration not stated)"
category_label = "true"


====

experimental protocol: inhibitors of HIV fusion peptide binding, primary screen, biochemical, uHTS, fluorescence dequenching (AID 1986)
conditions used: cell-free peptide binding, 30 min, at 20 µM
The whole screen tested about 290,000 compounds, of which about 890 (0.31%) were called active. Rule as the data show it: active = inhibition mostly above about 52% (no sharp cut-off); inactive = mostly below about 76%. For the sample, actives were picked, then their nearest neighbours and some compounds at random.
Possible outcomes: active, inactive

[[record]]
compound = "O=C1NC(=O)N(c2ccc3c(c2)OCO3)C(=O)/C1=C\\c1ccc(-c2ccccc2C(=O)O)o1"
category_label = "inactive"

[[record]]
compound = "COc1cc(C(=S)N2CCOCC2)cc(OC)c1OC(=O)Cc1ccccc1"
category_label = "inactive"

[[record]]
compound = "COc1cccc(N2C(=O)NC(=O)/C(=C/c3ccc([N+](=O)[O-])s3)C2=O)c1"
category_label = "inactive"

[[record]]
compound = "COc1cccc(CNC(=O)CCC(=O)N2C[C@H]3C[C@H](C2)c2cccc(=O)n2C3)c1OC"
category_label = "inactive"

[[record]]
compound = "O=C1NC(=O)N(c2ccc3c(c2)OCO3)C(=O)/C1=C/c1cccs1"
category_label = "inactive"

[[record]]
compound = "Cc1cccc(N=Nc2ccc(N(C)C)cc2)c1"
category_label = "inactive"

[[record]]
compound = "CCOC(=O)C1(c2ccccc2)CCN(CCC(=O)Nc2ccccc2OC)CC1"
category_label = "inactive"

[[record]]
compound = "CCN1/C(=C\\C=C\\C2=[N+](CC)c3ccccc3C2(C)C)C(C)(C)c2ccccc21"
category_label = "inactive"

[[record]]
compound = "O=C1NC(=O)N(c2ccccc2)C(=O)/C1=C/c1ccc([N+](=O)[O-])s1"
category_label = "active"

[[record]]
compound = "CCCCCC(=O)N[C@@H](c1ccccc1)[C@@H](O)C(=O)O[C@H]1C[C@@]2(O)[C@@H](OC(=O)c3ccccc3)C3[C@](C)(C(=O)[C@H](O)C(=C1C)C2(C)C)[C@@H](OC1OCC(O)C(O)C1O)C[C@H]1OC[C@@]31OC(C)=O (stereo partly drawn)"
category_label = "inactive"

[[record]]
compound = "CC1=C(C(=O)O)N2C(=O)C(NC(=O)Cc3ccccc3)C2SC1 (stereo not drawn)"
category_label = "inactive"

[[record]]
compound = "CN1/C(=C\\C=Nc2ccccc2)C(C)(C)c2ccccc21"
category_label = "inactive"

[[record]]
compound = "Cc1cc(=O)oc2cc3c(cc12)CCCN3"
category_label = "inactive"

